# procedure details: Toxicity liver stage against HepG2, at 10uM
# Format: cell-based
# Set-up: test concentration 10 uM, cell line HepG2-A16-CD81EGFP
# run parameters: human, HepG2-A16-CD81EGFP cells; read-out: INHIBITION
property label: cytotoxicity at 10 µM (%)
Reply numerically in %, unit not repeated.

So for `O=C(NCCNc1ncccn1)NCCSC(F)(F)F` , the logged cytotoxicity at 10 µM turned out to be 5.81

Entry `Cc1ccc2c(n1)N(CCn1cccn1)CCN(C1CCOCC1)C2` ; cytotoxicity at 10 µM = -2.83

For Cc1nc(C2(O)CCCNCC2)sc1CCOc1ccc(F)cc1 (stereo not drawn) the compound record lists cytotoxicity at 10 µM as -15.8

====

# procedure details: Toxicity liver stage against HepG2, at 10uM
# Assay type: cell-based
# Parameters: test concentration 10 uM, cell line HepG2-A16-CD81EGFP
# run parameters: human, HepG2-A16-CD81EGFP cells; read-out: INHIBITION
Assign cytotoxicity at 10 µM to each entry below.
Quick reminder: number only, in %, skip the unit.

The compound listed as `COC(=O)N1CC(C)=C(C)CN1C(=O)Nc1cccc(Cl)c1` shows cytotoxicity at 10 µM equal to 0.359

Given item `CSc1nccc(NCc2cc3n(n2)CCCN(C(=O)C2CCC2)C3)n1` , the value recorded as its cytotoxicity at 10 µM is -118

Lab note: measured cytotoxicity at 10 µM of `Cc1ccoc1C(=O)N1Cc2c(Cn3ccnc3)nn(C)c2C1` was -68.5

Record Cc1ccc(N2CCCN(C(=O)C3CCCO3)CC2)nn1 (stereo not given) , field cytotoxicity at 10 µM: -11.1

Query `COc1ccc(C)cc1NC(=O)Nc1cnc(N2CCOCC2)nc1` yields cytotoxicity at 10 µM of -9.67

The recorded cytotoxicity at 10 µM for entry `O=C(O)[C@@H]1CN(Cc2ccc3nsnc3c2)C[C@H]1c1ccncc1` equals 5.4

Recorded cytotoxicity at 10 µM (compound `Cc1cc(NC(=O)NCc2nccn2C)ccc1OC(C)C` ): -2.74

// sample COC1(CNS(=O)(=O)c2ccccc2Br)CCSC1 (stereo not given) , its cytotoxicity at 10 µM was -8.26

The compound O=C(c1noc2c1CCCC2)N1CCCC(c2nccs2)C1 (stereo not given) showed cytotoxicity at 10 µM equal to -2.66

Briefly, cytotoxicity at 10 µM measured for CCc1cnc(CN(C(C)=O)C2CCN(CCc3ccccn3)C2)o1 (stereo not given) : -2.72

Briefly, cytotoxicity at 10 µM measured for `COc1ncccc1C(=O)N1CCN(C(=O)Cc2ccccn2)CC1` : 0.722

Looking up CC(C)CCC(=O)NC(C)c1nnc2n1CCCCC2 (stereo not given) , I found its cytotoxicity at 10 µM recorded as -7.76

Documented cytotoxicity at 10 µM of `Cn1cc(CN2CCC(CCC(=O)NCc3ccc(F)cc3)CC2)cn1` : -19.5

Note to self: cytotoxicity at 10 µM recorded for `NS(=O)(=O)CCNC(=O)c1nnn(-c2ccc(F)cc2)c1C1CC1` was -14.3

Measured cytotoxicity at 10 µM, `COc1cc(OC)cc(C(=O)N(C)Cc2nnc3ccccn23)c1` : -26.9

The compound listed as `Cc1nc2ccccc2c(=O)n1Cc1nnnn1C1CC1` shows cytotoxicity at 10 µM equal to -13.8

Item: Cc1cc(-c2nnc(SCC(=O)O)n2C(C)c2ccccc2)nn1C (stereo not given) | cytotoxicity at 10 µM: -1.1

The compound listed as C=C(C)CNCC1(O)CCCN(Cc2ccc(F)c(F)c2)C1=O (stereo not given) has a reported cytotoxicity at 10 µM of -1.12

Sure, the documented cytotoxicity at 10 µM for COCC1CN(Cc2cc(C)on2)Cc2cn(CC3CC3)nc21 (stereo not given) is 8.91

Recorded cytotoxicity at 10 µM (compound CC(NC(=O)Nc1ccc(OC2CCCC2)cc1)c1nc[nH]n1 (stereo not given) ): -5.42
